Test system: SF-268 CNS
Test Protocol: NCI tumour cell line growth inhibition, 48 h
Measured Attribute: TGI

Take a look at these entries with their results.
Compound	TGI
COc1ccc(-n2cnc3c(NCC(=O)O)ncnc32)cc1	> 100 µM
COc1cc(/C=C\c2cc(/C=C\c3ccc(O)c(OC)c3)n(C(=O)COc3ccccc3)n2)ccc1O	5.65 µM
Cc1cc(-c2ccc(C3C(C#N)=C(N)Oc4c3c(=O)oc3ccccc43)cc2)cnc1F (stereo not given)	> 100 µM
CC(=O)OCC12C(OC(C)=O)C(=O)C3C(OC(C)=O)C14OC3(C)COC(=O)c1cccnc1C(C)C(C)C(=O)OC(C(OC(C)=O)C2OC(C)=O)C4(C)O (stereo not given)	> 100 µM
O=C1CCC[C@]2(CCCC(=O)N2)C1	> 100 µM
Cc1ccc2cc3cccc(C(=O)NCCN(C)C)c3nc2c1	4.03 µM
N=C(N)CCNC(=O)C1CCC(N)=N1 (stereo not given)	> 93 µM
CC(C)CC(=O)[O-].N.N.N.N.N.[Co+3].[O-][Cl+3]([O-])([O-])[O-]	> 100 µM
C=CCN=C1N=C(C)C(C(=O)OCC)S1 (stereo not given)	> 100 µM
O=C1c2ccccc2C(=O)c2c1ccc(O)c2O	> 100 µM

Fill in TGI for record CC(CO)(CO)N1C(=O)C2C3c4ccccc4C(c4ccccc43)C2C1=O (stereo not given) > 100 µM

Fill in TGI for record `O=C1C=C(Nc2cccnc2)c2ccccc2C1=O` 20.9 µM

Fill in TGI for record `CCc1cccc(C)c1NC(=O)CCc1nnc(SC)o1` > 100 µM

Fill in TGI for record `O=[N+]([O-])c1ccc2c3c1[C@H]1O[C@H]1c1cccc(c1-3)[C@@H]1O[C@H]21` 4.38 µM

Fill in TGI for record CCN(CC)CCN1CCc2c([nH]c3ccccc23)C1c1cccnc1 (stereo not given) > 100 µM

----------
System: HOP-62 NSCLC
Test Protocol: NCI tumour cell line growth inhibition, 48 h; in the data active means GI50 below about 0.43 µM; inactive means the rest
Choose the fitting class; nothing outside active, inactive is accepted.

What was the test verdict on CC1CN=C(c2cccc(-c3ccc(-c4ccccc4)o3)c2)N1 (stereo not drawn) ? inactive

What was the test verdict on `COc1cccc(-n2ncc3c(N/N=C/c4cccc(F)c4)ncnc32)c1` ? inactive

What was the test verdict on `N=C(N)c1ccc(-c2ccc(-c3cccs3)o2)cc1` ? inactive

What was the test verdict on Cc1cc(-c2ccc(C3C(C#N)=C(N)Oc4c3c(=O)oc3ccccc43)cc2)cnc1F (stereo not drawn) ? inactive

What was the test verdict on `c1ccc(-c2cccc(-c3ccccn3)n2)nc1` ? active

What was the test verdict on `COC(=O)[C@]12CC[C@@H](C(=O)/C=C/c3cccnc3)[C@@H]1[C@H]1CC[C@@H]3[C@@]4(C)C/C(=C/c5cccnc5)C(=O)C(C)(C)[C@@H]4CC[C@@]3(C)[C@]1(C)CC2` ? inactive

What was the test verdict on `COc1ccc(-c2cn(-c3cccc(C(=O)/C=C/c4cc(OC)c(OC)c(OC)c4)c3)c(=O)[nH]2)cc1` ? inactive

What was the test verdict on `COC(=O)CCC1=C(C)C(C)=N/C1=C\c1[nH]c(-c2ccc[nH]2)cc1OC` ? inactive

What was the test verdict on `C/C(=C\COc1ccc2ccc(=O)oc2c1)C1=CC(=O)C(C)(C)O1` ? inactive

----------
Entries and their GI50
Test system: EKVX NSCLC
Test Protocol: NCI tumour cell line growth inhibition, 48 h

Write GI50 of `C=C1C(=O)O[C@H]2[C@H]1CC/C(COC(=O)NCc1c[nH]c3ccc(Br)cc13)=C\CC[C@@]1(C)O[C@@H]21` ; system used: EKVX NSCLC 1580 nM

----------
Entries and their TGI
Test system: M19-MEL melanoma
Test Protocol: NCI tumour cell line growth inhibition, 48 h

Take a look at these entries with their results.
Molecule	TGI
Cc1c(Cl)ccc2c1NC(=O)C2(O)CC(=O)c1cccc2ccccc12 (stereo not drawn)	37.6 µM
Cc1ccc(-c2cc(=S)n(-c3ccccc3)c3nc(=S)n(-c4ccccc4)c(N)c23)cc1	> 100 µM
Cn1c2c(c3ccccc31)CCN(CCCN1CCN(c3cccc(Cl)c3)CC1)C2=O	42.5 µM
CCc1cccc(C)c1NC(=O)CCc1nnc(SC)o1	> 100 µM
Cc1cccc(-c2cc(=O)c3cc(C)c(C)c(C(=O)O)c3o2)c1	> 100 µM
CC(=O)OC(OC(C)=O)c1ncccc1C(=O)OC(C)C	> 100 µM
Cc1cc(NS(=O)(=O)c2ccc(NC(=O)c3ccc(Cl)c4c(Nc5ccc(S(N)(=O)=O)cc5)c5ccccc5nc34)cc2)no1	38.4 µM

Fill in TGI for record `O=C(/C=C/c1ccccc1O)c1cccs1` > 100 µM

----------
Entries and their TGI
System: HCT-116 colon
Test Protocol: NCI tumour cell line growth inhibition, 48 h

Take a look at these entries with their results.
Molecule	Measured Attribute	Test Result
CS(=O)(=O)c1ccc(NNc2cc(=O)[nH]c(=O)[nH]2)cc1	TGI	> 100 µM
[O-][n+]1c2cc3c(cc2[n+]([O-])c2c(O)cccc21)CN(CCN1CCOCC1)C3	TGI	33.2 µM
Cc1cccc(-c2cc(=O)c3cc(C)c(C)c(C(=O)O)c3o2)c1	TGI	> 100 µM

Shift focus to the following entry.
Write TGI of C=Cc1ccccc1C1C(C(=O)OCC)=C(C)N=C2OC(C(=O)OC)C(=O)N21 (centres undefined) ; system used: HCT-116 colon > 100 µM

----------
System: NCI-H460 lung
Test Protocol: NCI tumour cell line growth inhibition, 48 h
Measured Attribute: TGI

Fill in TGI for record `OC(Cc1ccc2ccccc2n1)(C(F)(F)F)C(F)(F)F` > 10 µM

Fill in TGI for record `COc1ccc(-n2cnc3c(NCC(=O)O)ncnc32)cc1` > 100 µM

Fill in TGI for record CC12C=C[C@]3(CC[C@@H]4[C@@](C)(CO)CCC[C@]4(C)C3CC1)C2 (some centres not stated) 40.1 µM

Fill in TGI for record CC1(C)OC(CCC#N)CN1C(=O)OCc1ccccc1 (configuration not stated) > 100 µM

Fill in TGI for record CC1CN=C(c2cccc(-c3ccc(-c4ccccc4)o3)c2)N1 (configuration not stated) 4.24 µM

Fill in TGI for record `CS(=O)(=O)OCCn1c2c(c3c(O)cccc31)C(=O)c1ccccc1-2` > 100 µM

----------
Tested on: MDA-MB-231 breast
Test Protocol: NCI tumour cell line growth inhibition, 48 h
Entries and their TGI

Take a look at these entries with their results.
Compound	TGI
CCOC(=O)c1c(SCCCN2CCCCC2)n(-c2ccccc2)c(=S)n(-c2ccccc2)c1=O	46.1 µM
COC(=O)C(C)(C)NC(=O)C(Cc1ccccc1)Nc1ncnc2c1ncn2-c1ccc(OC)cc1 (centres undefined)	> 100 µM
NC(=O)c1cc(Cl)ccc1NC(=O)COc1ccccc1	> 100 µM
O=C(O)CCC[C@]1(O)O[C@@]2(CCCC2=O)[C@]2(O)CCC[C@@]21O	> 100 µM

Fill in TGI for record `C/C(=C\COc1ccc2ccc(=O)oc2c1)C1=CC(=O)C(C)(C)O1` 22.9 µM

----------
System: T-47D breast
Test Protocol: NCI tumour cell line growth inhibition, 48 h
Entries and their TGI

Molecule	TGI
N#Cc1c(N)c2c(c(-c3ccccc3)c1-c1ccccc1)C(=O)N(NC(=S)Nc1ccccc1)C2=O	> 100 µM
C[C@@]1(O)C2C3CC4C5C3C1[C@](O)(C42)[C@H]5Br (stereo partly specified)	> 100 µM
Nc1nc(CCl)nc(N2CCOCC2)n1	> 100 µM
CC(=O)O[C@H]1[C@@H]2OC(=O)C3(CC3)C2C[C@H]2O[C@]2(C)CC/C=C(\C)CCC[C@@H]1C (stereo partly specified)	> 100 µM
Oc1cc(Cn2cnc3c(Cl)nc(Cl)nc32)ccc1C12CC3CC(CC(C3)C1)C2	80.6 µM

Shift focus to the following entry.
Fill in TGI for record `O=C(O)c1ccccc1/C=C1\Cc2ccccc2C1=O` > 100 µM

----------
Entries and their TGI
System: UACC-62 melanoma
Test Protocol: NCI tumour cell line growth inhibition, 48 h

Compound	Test System	TGI
Cc1nc(Nc2ccc(Cl)cc2)sc1C(=O)NNC(=O)C(=O)NN	UACC-62 melanoma	28.6 µM
CC12C=C[C@]3(CC[C@@H]4[C@@](C)(CO)CCC[C@]4(C)C3CC1)C2 (stereo not given in full)	UACC-62 melanoma	29.3 µM

Fill in TGI for record `CC(C)CNC(=O)c1ccc(NC(=O)N(CC(C)C)C(=O)c2ccc(N)c(OCCCN)c2)c(OCCCN=C(N)N)c1` > 62.5 µM

Fill in TGI for record `NC(N)=N/N=C\c1c(-c2cccc([N+](=O)[O-])c2)nc2sc(Cl)cn12` > 100 µM

Fill in TGI for record `Nc1c(C(=O)c2cccc(-c3ccncc3)c2)cnn1-c1ccc(F)cc1` > 25 µM

Fill in TGI for record Cc1c(Cl)ccc2c1NC(=O)C2(O)CC(=O)c1cccc2ccccc12 (stereo not given) > 100 µM

Fill in TGI for record `Cc1nn(CN2CCN(C)CC2)c(=S)n1/N=C/c1ccc(-c2ccc(Cl)cc2Cl)o1` > 100 µM

Fill in TGI for record CC1(C=O)C(=O)CCC2(C)C3CC(=O)OC3CCC12 (stereo not given) > 100 µM

Fill in TGI for record C[C@@]1(O)C2C3CC4C5C3C1[C@](O)(C42)[C@H]5Br (stereo not given in full) > 100 µM

Fill in TGI for record COC(=O)C(C)(C)NC(=O)C(Cc1ccccc1)Nc1ncnc2c1ncn2-c1ccc(OC)cc1 (stereo not given) > 100 µM

Fill in TGI for record NC1CC(=O)c2ccccc21 (stereo not given) > 100 µM

Fill in TGI for record `CCOC(=O)C#Cc1c(C(=O)OCC)nnn1Cc1ccc(C(F)(F)F)cc1` 4.36 µM

Fill in TGI for record `Cc1ccc(/C(=C/C=C(/C#N)C(N)=O)Sc2ncnn2C)cc1` 24.6 µM

Fill in TGI for record `Cc1nc2c(nc1C)C(=O)C1=C(C2=O)C2C=CC1CC2` 12.3 µM

Fill in TGI for record `CN(C)CCNC(=O)c1cccc(NC(=O)c2ccccc2)c1[N+](=O)[O-]` > 100 µM

Fill in TGI for record `O=C(O)CCC[C@]1(O)O[C@@]2(CCCC2=O)[C@]2(O)CCC[C@@]21O` > 100 µM

Fill in TGI for record `COc1cccc(-n2ncc3c(N/N=C/c4cccc(F)c4)ncnc32)c1` > 25 µM

Fill in TGI for record CCC1(CN(C)C)CC/C(=C\c2ccc(OC)cc2)C1=O (stereo not given) > 100 µM

Fill in TGI for record `CC(=O)O[C@H]1C(=O)[C@@]2(C)[C@H]([C@H](OC(=O)C3CCCCC3)[C@]3(O)C[C@H](OC(=O)[C@H](O)[C@@H](NC(=O)OC(C)(C)C)c4ccccc4)C(C)=C1C3(C)C)[C@]1(OC(C)=O)CO[C@@H]1C[C@@H]2O` > 2.47 µM

Fill in TGI for record `COc1ccc(O)c2c(=O)ccccc12` > 100 µM
